Tested on: PC-3 cell line (prostate cancer)
Experiment: MTT cytotoxicity assay, PC-3
Assay type: cell-based
Conditions: Homo sapiens, 72 h, average of two separate determinations, NA: No Activity
Listing of recorded IC50 by entry.
Reply numerically in µM, unit not repeated.

As a guide, the following entries are already answered.
INPUT: // IC50 lookup, key: O=C(Nc1ccc(-c2cn3ccnc3c(N3CCOCC3)n2)cc1)c1ccc(-c2ccccc2)cn1 [12a]
OUTPUT: 50.3

INPUT: // IC50 lookup, key: O=C(Nc1ccc(-c2cn3ccnc3c(N3CCOCC3)n2)cc1)c1cc(-c2ccc(Br)cc2)ncn1 [14d]
OUTPUT: 37.1

INPUT: // IC50 lookup, key: Cc1cccc(-c2ccnc(C(=O)Nc3ccc(-c4cn5ccnc5c(N5CCOCC5)n4)cc3)c2)c1 [13f]
OUTPUT: 65.6

INPUT: // IC50 lookup, key: O=C(Nc1ccc(-c2cn3ccnc3c(N3CCOCC3)n2)cc1)c1cc(-c2ccc(C(F)(F)F)cc2)ncn1 [14g]
OUTPUT: 96.6

INPUT: // IC50 lookup, key: COc1ccc(-c2cc(C(=O)Nc3ccc(-c4cn5ccnc5c(N5CCOCC5)n4)cc3)ncn2)cc1 [14c]
OUTPUT: 12.7

INPUT: // IC50 lookup, key: O=C(Nc1ccc(-c2cn3ccnc3c(N3CCOCC3)n2)cc1)c1cc(-c2ccc(C(F)(F)F)cc2)ccn1 [13d]
OUTPUT: 55.6

INPUT: // IC50 lookup, key: COc1ccc(-c2ccnc(C(=O)Nc3ccc(-c4cn5ccnc5c(N5CCOCC5)n4)cc3)c2)cc1 [13e]
OUTPUT: 59.7

INPUT: // IC50 lookup, key: Cc1ccc(-c2ccc(C(=O)Nc3ccc(-c4cn5ccnc5c(N5CCOCC5)n4)cc3)nc2)cc1 [12g]
OUTPUT: 42.3

INPUT: // IC50 lookup, key: O=C(Nc1ccc(-c2cn3ccnc3c(N3CCOCC3)n2)cc1)c1ccc(-c2ccc(C(F)(F)F)cc2)cn1 [12d]
OUTPUT: 69.7

INPUT: // IC50 lookup, key: Cc1cccc(-c2ccc(C(=O)Nc3ccc(-c4cn5ccnc5c(N5CCOCC5)n4)cc3)nc2)c1 [12f]
OUTPUT: 26.8

***
INPUT: // IC50 lookup, key: CS(=O)(=O)N1CCN(Cc2cc3nc(-c4cccc5[nH]ncc45)nc(N4CCOCC4)c3s2)CC1 [GDC-0941, reference compound]
OUTPUT: 0.2

INPUT: // IC50 lookup, key: Cc1ccc(-c2cc(C(=O)Nc3ccc(-c4cn5ccnc5c(N5CCOCC5)n4)cc3)ncn2)cc1 [14b]
OUTPUT: 25

###

quantity: melting point

INPUT: // melting point lookup, key: Cc1cccc(-c2ccnc(C(=O)Nc3ccc(-c4cn5ccnc5c(N5CCOCC5)n4)cc3)c2)c1 [13f]
OUTPUT: 233 to 234 °C

INPUT: // melting point lookup, key: COc1ccc(-c2cc(C(=O)Nc3ccc(-c4cn5ccnc5c(N5CCOCC5)n4)cc3)ncn2)cc1 [14c]
OUTPUT: 269 to 271 °C

INPUT: // melting point lookup, key: O=C(Nc1ccc(-c2cn3ccnc3c(N3CCOCC3)n2)cc1)c1cc(-c2ccc(F)cc2)ncn1 [14f]
OUTPUT: 259 to 260 °C

***
INPUT: // melting point lookup, key: O=C(Nc1ccc(-c2cn3ccnc3c(N3CCOCC3)n2)cc1)c1ccc(-c2ccccc2)cn1 [12a]
OUTPUT: 268 to 270 °C

###

Target: PI3Kα kinase (Homo sapiens, UniProt P42336)
Sequence (P42336 whole entry): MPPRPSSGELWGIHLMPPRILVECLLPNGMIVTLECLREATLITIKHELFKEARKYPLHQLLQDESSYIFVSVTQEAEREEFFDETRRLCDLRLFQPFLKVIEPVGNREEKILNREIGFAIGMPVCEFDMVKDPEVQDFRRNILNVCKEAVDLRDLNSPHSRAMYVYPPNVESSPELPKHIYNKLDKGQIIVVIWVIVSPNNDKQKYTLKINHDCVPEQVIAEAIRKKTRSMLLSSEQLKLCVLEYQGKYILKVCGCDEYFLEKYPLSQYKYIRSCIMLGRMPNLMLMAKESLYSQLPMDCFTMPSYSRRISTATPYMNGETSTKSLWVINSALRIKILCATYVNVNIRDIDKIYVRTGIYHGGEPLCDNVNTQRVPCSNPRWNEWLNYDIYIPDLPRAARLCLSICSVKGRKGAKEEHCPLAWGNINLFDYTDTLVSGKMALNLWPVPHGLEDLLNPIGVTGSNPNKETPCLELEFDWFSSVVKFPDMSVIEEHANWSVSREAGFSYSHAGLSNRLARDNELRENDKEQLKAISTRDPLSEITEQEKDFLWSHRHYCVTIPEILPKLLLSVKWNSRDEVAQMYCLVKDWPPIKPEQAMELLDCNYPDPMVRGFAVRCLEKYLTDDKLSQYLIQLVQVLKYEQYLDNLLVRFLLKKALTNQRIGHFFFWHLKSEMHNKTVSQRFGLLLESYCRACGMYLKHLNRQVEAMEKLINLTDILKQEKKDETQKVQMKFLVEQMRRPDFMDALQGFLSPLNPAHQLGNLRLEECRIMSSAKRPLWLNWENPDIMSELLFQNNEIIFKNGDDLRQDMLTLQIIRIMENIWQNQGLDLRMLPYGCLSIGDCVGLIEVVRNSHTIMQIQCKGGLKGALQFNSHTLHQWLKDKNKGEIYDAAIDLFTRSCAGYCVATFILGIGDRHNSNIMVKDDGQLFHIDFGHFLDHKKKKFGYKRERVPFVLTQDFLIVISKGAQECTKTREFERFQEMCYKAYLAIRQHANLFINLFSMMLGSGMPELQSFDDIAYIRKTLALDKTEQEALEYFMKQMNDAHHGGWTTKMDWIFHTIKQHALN
Sequence (P27986 whole entry partner): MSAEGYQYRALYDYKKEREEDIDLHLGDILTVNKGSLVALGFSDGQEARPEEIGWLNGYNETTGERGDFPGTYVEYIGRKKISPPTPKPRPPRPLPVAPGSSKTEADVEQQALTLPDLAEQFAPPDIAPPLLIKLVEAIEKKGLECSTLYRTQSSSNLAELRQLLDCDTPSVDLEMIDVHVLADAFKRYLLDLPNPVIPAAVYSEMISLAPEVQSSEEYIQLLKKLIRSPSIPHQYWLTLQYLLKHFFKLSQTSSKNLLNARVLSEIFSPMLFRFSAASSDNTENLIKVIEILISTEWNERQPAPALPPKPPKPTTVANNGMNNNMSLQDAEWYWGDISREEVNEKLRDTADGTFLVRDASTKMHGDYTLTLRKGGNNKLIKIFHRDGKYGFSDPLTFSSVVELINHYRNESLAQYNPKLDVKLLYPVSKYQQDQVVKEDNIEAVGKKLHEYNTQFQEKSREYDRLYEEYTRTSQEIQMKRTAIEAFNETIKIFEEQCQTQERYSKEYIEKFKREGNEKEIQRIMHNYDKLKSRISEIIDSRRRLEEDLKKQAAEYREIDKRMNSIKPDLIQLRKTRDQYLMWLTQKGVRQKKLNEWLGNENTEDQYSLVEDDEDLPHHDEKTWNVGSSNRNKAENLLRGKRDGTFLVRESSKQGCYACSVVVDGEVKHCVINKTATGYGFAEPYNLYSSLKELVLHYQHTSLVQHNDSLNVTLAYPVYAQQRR
quantity: pIC50
Scale: negative log10 of molar concentration, which is what pIC50 denotes.

INPUT: pIC50 of COc1ccc(-c2cc(C(=O)Nc3ccc(-c4cn5ccnc5c(N5CCOCC5)n4)cc3)ncn2)cc1 [14c] on PI3Kα kinase (Homo sapiens, UniProt P42336)?
OUTPUT: 5.90

###

Listing of recorded melting point by entry.

INPUT: // melting point lookup, key: O=C(Nc1ccc(-c2cn3ccnc3c(N3CCOCC3)n2)cc1)c1cc(-c2ccc(F)cc2F)ccn1 [13c]
OUTPUT: 266 to 267 °C

INPUT: // melting point lookup, key: O=C(Nc1ccc(-c2cn3ccnc3c(N3CCOCC3)n2)cc1)c1cc(-c2cccc(F)c2)ccn1 [13b]
OUTPUT: 237 to 239 °C

INPUT: // melting point lookup, key: O=C(Nc1ccc(-c2cn3ccnc3c(N3CCOCC3)n2)cc1)c1cc(-c2ccc(Cl)cc2)ncn1 [14e]
OUTPUT: 235 to 237 °C

INPUT: // melting point lookup, key: Cc1ccc(-c2ccc(C(=O)Nc3ccc(-c4cn5ccnc5c(N5CCOCC5)n4)cc3)nc2)cc1 [12g]
OUTPUT: 258 to 260 °C

INPUT: // melting point lookup, key: Cc1cccc(-c2ccc(C(=O)Nc3ccc(-c4cn5ccnc5c(N5CCOCC5)n4)cc3)nc2)c1 [12f]
OUTPUT: 241 to 243 °C

***
INPUT: // melting point lookup, key: O=C(Nc1ccc(-c2cn3ccnc3c(N3CCOCC3)n2)cc1)c1ccc(-c2cccc(F)c2)cn1 [12b]
OUTPUT: 261 to 264 °C

INPUT: // melting point lookup, key: O=C(Nc1ccc(-c2cn3ccnc3c(N3CCOCC3)n2)cc1)c1cc(-c2ccccc2)ncn1 [14a]
OUTPUT: 272 to 275 °C

INPUT: // melting point lookup, key: O=C(Nc1ccc(-c2cn3ccnc3c(N3CCOCC3)n2)cc1)c1cc(-c2ccc(C(F)(F)F)cc2)ncn1 [14g]
OUTPUT: 278 to 281 °C
